Test system: WiDr
Assay: Cytotoxicity in WiDr cells expressing beta-galactosidase control
Format: functional, cell-based
Details: Homo sapiens

>  <SMILES>
CN(C(=O)OCc1ccc(OC(=O)N[C@@H](CCC(=O)O)C(=O)O)cc1)c1ccc(N(CCI)CCI)cc1

>  <UNITS OF MEASURE>
µM

>  <IC50>
21.5

$$$$
>  <SMILES>
CN(C(=O)OCc1ccc(OC(=O)N[C@@H](CCC(=O)O)C(=O)O)cc1)c1ccc(N(CCCl)CCCl)cc1

>  <UNITS OF MEASURE>
µM

>  <IC50>
19.6

$$$$
>  <SMILES>
CN(C(=O)OCc1ccc(NC(=O)N[C@@H](CCC(=O)O)C(=O)O)cc1)c1ccc(N(CCCl)CCCl)cc1

>  <UNITS OF MEASURE>
µM

>  <IC50>
39.7

$$$$
>  <SMILES>
O=C(O)CC[C@H](NC(=O)Nc1ccc(COC(=O)Nc2ccc(N(CCBr)CCBr)cc2)cc1)C(=O)O

>  <UNITS OF MEASURE>
µM

>  <IC50>
205

$$$$

###

In this section, each of the compounds is paired with its reported IC50.
Tested on: WiDr
Experiment: Cytotoxicity in WiDr cells expressing beta-galactosidase control
Format: functional, cell-based
Conditions: Homo sapiens

>  <SMILES>
O=C(O)CC[C@H](NC(=O)Oc1ccc(COC(=O)Nc2ccccc2N(CCCl)CCCl)cc1)C(=O)O

>  <ASSAY TARGET>
WiDr

>  <IC50>
38.1 µM

$$$$
>  <SMILES>
O=C(O)CC[C@H](NC(=O)Nc1ccc(COC(=O)Nc2ccc(N(CCI)CCI)cc2)cc1)C(=O)O

>  <ASSAY TARGET>
WiDr

>  <IC50>
180 µM

$$$$
>  <SMILES>
CS(=O)(=O)OCCN(CCCl)c1ccccc1NC(=O)OCc1ccc(OC(=O)N[C@@H](CCC(=O)O)C(=O)O)cc1

>  <ASSAY TARGET>
WiDr

>  <IC50>
148 µM

$$$$
>  <SMILES>
O=C(O)CC[C@H](NC(=O)Nc1ccc(COC(=O)Nc2ccccc2N(CCI)CCI)cc1)C(=O)O

>  <ASSAY TARGET>
WiDr

>  <IC50>
149 µM

$$$$

###

Listed below: IC50 values for each entry.
Tested on: WiDr
Assay: Cytotoxicity in WiDr cells expressing surface-tethered carboxypeptidase G2 (CPG2)
Assay type: functional, cell-based
Settings: Homo sapiens
ENDPOINT: IC50 (µM)

>  <SMILES>
O=C(O)CC[C@H](NC(=O)Oc1ccc(COC(=O)Nc2ccc(N(CCBr)CCBr)cc2)cc1)C(=O)O

>  <ENDPOINT>
IC50

>  <MEAS VALUE>
2.6

$$$$
>  <SMILES>
CN(C(=O)OCc1ccc(NC(=O)N[C@@H](CCC(=O)O)C(=O)O)cc1)c1ccc(N(CCI)CCI)cc1

>  <ENDPOINT>
IC50

>  <MEAS VALUE>
1.5

$$$$
>  <SMILES>
O=C(O)CC[C@H](NC(=O)Nc1ccc(COC(=O)Nc2ccccc2N(CCI)CCI)cc1)C(=O)O

>  <ENDPOINT>
IC50

>  <MEAS VALUE>
3

$$$$
>  <SMILES>
CS(=O)(=O)OCCN(CCOS(C)(=O)=O)c1ccccc1NC(=O)OCc1ccc(OC(=O)N[C@@H](CCC(=O)O)C(=O)O)cc1

>  <ENDPOINT>
IC50

>  <MEAS VALUE>
40

$$$$
>  <SMILES>
CN(C(=O)OCc1ccc(NC(=O)N[C@@H](CCC(=O)O)C(=O)O)cc1)c1ccc(N(CCBr)CCBr)cc1

>  <ENDPOINT>
IC50

>  <MEAS VALUE>
4.1

$$$$
>  <SMILES>
O=C(O)CC[C@H](NC(=O)Nc1ccc(COC(=O)Nc2ccccc2N(CCCl)CCCl)cc1)C(=O)O

>  <ENDPOINT>
IC50

>  <MEAS VALUE>
4.5

$$$$

###

Molecular target: Carboxypeptidase G2 (Pseudomonas aeruginosa (strain ATCC 15692 / PAO1 / 1C / PRS 101 / LMG12228)) (UniProt Q9I056)
Sequence (whole entry): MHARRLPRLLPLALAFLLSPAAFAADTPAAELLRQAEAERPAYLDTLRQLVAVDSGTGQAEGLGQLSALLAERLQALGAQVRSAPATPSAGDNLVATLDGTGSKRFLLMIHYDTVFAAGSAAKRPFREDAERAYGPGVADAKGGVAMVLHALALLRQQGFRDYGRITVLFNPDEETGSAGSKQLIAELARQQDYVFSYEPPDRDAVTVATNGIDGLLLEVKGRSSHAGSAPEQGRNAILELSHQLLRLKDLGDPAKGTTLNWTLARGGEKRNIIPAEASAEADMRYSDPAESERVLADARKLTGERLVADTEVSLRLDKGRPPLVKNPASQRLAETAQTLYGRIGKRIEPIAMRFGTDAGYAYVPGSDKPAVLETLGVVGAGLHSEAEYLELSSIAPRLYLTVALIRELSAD
Experiment: The kinetics of activation of the self-immolative prodrug by Carboxypeptidase G2 was measured
This listing pairs compounds with measured log10(k cat).
ENDPOINT: log10(k cat) (log10 of the value in s⁻¹)

>  <SMILES>
CN(C(=O)OCc1ccc(NC(=O)N[C@@H](CCC(=O)O)C(=O)O)cc1)c1ccc(N(CCCl)CCCl)cc1

>  <log10(k cat)>
0.74

$$$$
>  <SMILES>
O=C(O)CC[C@H](NC(=O)Oc1ccc(COC(=O)Nc2ccccc2N(CCCl)CCCl)cc1)C(=O)O

>  <log10(k cat)>
0.63

$$$$
>  <SMILES>
CN(C(=O)OCc1ccc(OC(=O)N[C@@H](CCC(=O)O)C(=O)O)cc1)c1ccc(N(CCCl)CCCl)cc1

>  <log10(k cat)>
0.64

$$$$
>  <SMILES>
O=C(O)CC[C@H](NC(=O)Oc1ccc(CO)cc1)C(=O)O

>  <log10(k cat)>
2.15

$$$$
>  <SMILES>
O=C(O)CC[C@H](NC(=O)Nc1ccc(COC(=O)Nc2ccccc2N(CCCl)CCCl)cc1)C(=O)O

>  <log10(k cat)>
0.47

$$$$
>  <SMILES>
O=C(O)CC[C@H](NC(=O)Nc1ccc(COC(=O)Nc2ccc(N(CCCl)CCCl)cc2)cc1)C(=O)O

>  <log10(k cat)>
1.00

$$$$
>  <SMILES>
O=C(O)CC[C@H](NC(=O)Nc1ccc(CO)cc1)C(=O)O

>  <log10(k cat)>
1.82

$$$$

###

Assay: Half-life period (prodrug) was determined
Assay type: ADME

>  <SMILES>
O=C(O)CC[C@H](NC(=O)Nc1ccc(COC(=O)Nc2ccccc2N(CCI)CCI)cc1)C(=O)O

>  <T1/2 / min>
2.7

$$$$
>  <SMILES>
CN(C(=O)OCc1ccc(OC(=O)N[C@@H](CCC(=O)O)C(=O)O)cc1)c1ccc(N(CCBr)CCBr)cc1

>  <T1/2 / min>
2.7

$$$$
>  <SMILES>
CN(C(=O)OCc1ccc(NC(=O)N[C@@H](CCC(=O)O)C(=O)O)cc1)c1ccc(N(CCI)CCI)cc1

>  <T1/2 / min>
3.9

$$$$
>  <SMILES>
O=C(O)CC[C@H](NC(=O)Oc1ccc(COC(=O)Nc2ccccc2N(CCI)CCI)cc1)C(=O)O

>  <T1/2 / min>
2.1

$$$$
>  <SMILES>
O=C(O)CC[C@H](NC(=O)Nc1ccc(COC(=O)Nc2ccccc2N(CCCl)CCCl)cc1)C(=O)O

>  <T1/2 / min>
107.5

$$$$
>  <SMILES>
O=C(O)CC[C@H](NC(=O)Oc1ccc(COC(=O)Nc2ccc(N(CCBr)CCBr)cc2)cc1)C(=O)O

>  <T1/2 / min>
0.9

$$$$
>  <SMILES>
CN(C(=O)OCc1ccc(NC(=O)N[C@@H](CCC(=O)O)C(=O)O)cc1)c1ccc(N(CCCl)CCCl)cc1

>  <T1/2 / min>
173.6

$$$$
>  <SMILES>
CN(C(=O)OCc1ccc(NC(=O)N[C@@H](CCC(=O)O)C(=O)O)cc1)c1ccc(N(CCBr)CCBr)cc1

>  <T1/2 / min>
2.8

$$$$
>  <SMILES>
O=C(O)CC[C@H](NC(=O)Nc1ccc(COC(=O)Nc2ccc(N(CCBr)CCBr)cc2)cc1)C(=O)O

>  <T1/2 / min>
0.85

$$$$
>  <SMILES>
O=C(O)CC[C@H](NC(=O)Nc1ccc(COC(=O)Nc2ccccc2N(CCBr)CCBr)cc1)C(=O)O

>  <T1/2 / min>
3

$$$$
>  <SMILES>
CN(C(=O)OCc1ccc(OC(=O)N[C@@H](CCC(=O)O)C(=O)O)cc1)c1ccc(N(CCCl)CCCl)cc1

>  <T1/2 / min>
173.6

$$$$
>  <SMILES>
CS(=O)(=O)OCCN(CCCl)c1ccccc1NC(=O)OCc1ccc(OC(=O)N[C@@H](CCC(=O)O)C(=O)O)cc1

>  <T1/2 / min>
10

$$$$
>  <SMILES>
CN(C(=O)OCc1ccc(OC(=O)N[C@@H](CCC(=O)O)C(=O)O)cc1)c1ccc(N(CCI)CCI)cc1

>  <T1/2 / min>
4.6

$$$$
>  <SMILES>
O=C(O)CC[C@H](NC(=O)Nc1ccc(COC(=O)Nc2ccc(N(CCI)CCI)cc2)cc1)C(=O)O

>  <T1/2 / min>
0.97

$$$$
>  <SMILES>
O=C(O)CC[C@H](NC(=O)Oc1ccc(COC(=O)Nc2ccc(N(CCI)CCI)cc2)cc1)C(=O)O

>  <T1/2 / min>
0.98

$$$$
